- Test system: OSBPL7
- Construct: Plasmids expressing each as a full-length protein with a C-terminal FLAG tag were obtained; expressed in transfected cells; host or cells: HEK293
- measurement protocol: Competition with ^3H-Cpd K UV cross-linking to FLAG-tagged OSBPL7 in HEK293 cells (immunoprecipitation, autoradiography)
- Type: binding, human
- Design: dose or concentration left out as unconfirmed
- condition description: average(SEM)
- Protocol: Briefly, a plasmid expressing a candidate target of interest fused with a FLAG tag was transfected into HEK293 cells. After 24 h, tritiated compound K at a concentration capable of inducing ABCA1-mediated cholesterol efflux (1.0 μM) was added for 3 h, then the live cells were exposed to UV-light (ʎ = 336 nm) to query potential compound/target cross-linking in situ. […]
parameter: OSBPL7 Competition %

Known results for compounds:
INSERT INTO measurements (compound, parameter, obs_value) VALUES
  ('[N-]=[N+]=Nc1ccc(-c2cc(C(=O)N[C@@H]3CCCC[C@H]3O)cnc2OCC2CC2)cc1Cl', 'OSBPL7 Competition %', '68(3.8) %'),
  ('Cn1cccc(NC(=O)c2cc(-c3ccc(Cl)cc3)c(OCC(F)(F)F)cn2)c1=O', 'OSBPL7 Competition %', '0(0) %'),
  ('Cc1cncc(-c2cc(NC(=O)c3cccnc3)cnc2OCC(F)(F)F)c1', 'OSBPL7 Competition %', '0(0.3) %'),
  ('O=C(N[C@@H]1CCCC[C@H]1O)c1cnc(OCC(F)(F)F)c(-c2ccc(Cl)cc2)c1', 'OSBPL7 Competition %', '40(12.2) %'),
  ('O=C(N[C@@H]1CCCOC1=O)c1cc(-c2ccc(Cl)cc2)c(OCC(F)(F)F)cn1', 'OSBPL7 Competition %', '8(2.2) %'),
  ('O=C(Nc1cnc(OCC(F)(F)F)c(-c2ccc(Cl)cc2)c1)c1cccnc1', 'OSBPL7 Competition %', '98(5.2) %');

Batch of 4 compounds: report OSBPL7 Competition % for each.
1. Cc1cc(-c2cc(NC(=O)c3cccnc3)cnc2OCC(F)(F)F)ccn1
2. O=C(N[C@@H]1CCCC[C@H]1O)c1ccc(OCC(F)(F)F)c(-c2ccc(Cl)c(Cl)c2)n1
3. CCCCNC(=O)CCc1ccc(-c2cc(C(=O)N[C@@H]3CCCC[C@H]3O)cnc2OCC2CC2)cc1
4. O=C(N[C@H]1CCCC[C@H]1O)c1cnc(OCC(F)(F)F)c(-c2ccc(Cl)c(Cl)c2)c1

*A*
17(5.0) %
65(8.1) %
38(9.5) %
53(4.7) %

Batch of 2 compounds: report OSBPL7 Competition % for each.
1. Cc1c(C(=O)NN2CCCCC2)nn(-c2ccc(Cl)cc2Cl)c1-c1ccc(Cl)cc1 [rimonabant, reference compound]
2. O=C(N[C@@H]1CCCC[C@H]1O)c1cnc(OCC2CC2)c(-c2ccc(Cl)cc2)c1

*A*
["0(0) %", "55(5.0) %"]
